These measurements were taken from patent US20170240556A1.

- System: HT29 (colon)
- procedure text: Proliferation Assay
- Type: cell-based
- assay context: Homo sapiens, HT-29, 72 h, read-out: IC50 inhibition of cell growth
pIC50: −log10 of the molar value.
assay readout: pIC50

QUERY: # lookup: pIC50 of COc1cccc(C(=O)Nc2nc3cc4c(cc3[nH]2)OC(F)(F)O4)c1 [Compound 56]
RESULT: ≥ 6.00

----------
- Test system: IMR90 (lung)
- procedure text: Proliferation Assay
- Assay type: cell-based
- assay context: Homo sapiens, IMR-90, 72 h, read-out: IC50 inhibition of cell growth
assay readout: IC50

QUERY: Need IC50, item COc1cccc(C(=O)Nc2nc3cc4c(cc3[nH]2)OC(F)(F)O4)c1
RESULT: ≤ 1 µM

----------
- target entity: Casein kinase 1 delta (CSKN1D) (Homo sapiens, UniProt P48730)
- Sequence (P48730 whole entry): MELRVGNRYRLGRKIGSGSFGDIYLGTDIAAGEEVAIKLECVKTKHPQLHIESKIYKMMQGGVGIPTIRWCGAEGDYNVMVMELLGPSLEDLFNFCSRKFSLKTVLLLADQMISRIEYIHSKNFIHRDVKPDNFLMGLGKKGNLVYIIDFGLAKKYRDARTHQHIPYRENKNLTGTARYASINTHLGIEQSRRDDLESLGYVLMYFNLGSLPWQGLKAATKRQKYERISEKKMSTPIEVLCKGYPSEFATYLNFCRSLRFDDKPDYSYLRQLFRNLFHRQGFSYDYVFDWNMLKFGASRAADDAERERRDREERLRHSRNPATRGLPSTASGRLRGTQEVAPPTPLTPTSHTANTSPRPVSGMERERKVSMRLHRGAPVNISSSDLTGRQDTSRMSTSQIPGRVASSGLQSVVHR
- procedure text: Casein kinase assay, CK1 delta
- assay context: recombinant CSKN1D 5 nM, ATP 10 μM
pIC50: −log10 of the molar value.
Please respond with reported pIC50 for every item in the list.

>>> observed("O=C(Nc1nc2cc3c(cc2[nH]1)OC(F)(F)O3)c1cc(-c2cccs2)on1")
"> 6.70"
>>> observed("O=C(Nc1nc2cc3c(cc2[nH]1)OC(F)(F)O3)c1csc(-c2cccs2)n1 [Compound 11B]")
"> 6.70"
>>> observed("CC(=O)Nc1n[nH]c(C(=O)Nc2nc3cc4c(cc3[nH]2)OC(F)(F)O4)n1")
"< 6.00"
>>> observed("O=C(Nc1nc2cc3c(cc2[nH]1)OC(F)(F)O3)c1cccc(OC(F)(F)F)c1")
"6.00 to 6.70"
>>> observed("O=C(Nc1nc2cc3c(cc2[nH]1)OC(F)(F)O3)c1csc(Br)c1")
"> 6.70"

Quick request: pIC50 for each listed item, please.
1. COc1ccnc(C(=O)Nc2nc3cc4c(cc3[nH]2)OC(F)(F)O4)c1 [Compound 26B]
2. O=C(Nc1nc2cc3c(cc2[nH]1)OC(F)(F)O3)C1CCCCC1
3. O=C(Nc1nc2cc3c(cc2[nH]1)OC(F)(F)O3)c1c(F)cccc1F
4. NS(=O)(=O)c1ccc(C(=O)Nc2nc3cc4c(cc3[nH]2)OC(F)(F)O4)cc1

RESULT:
1. < 6.00
2. > 6.70
3. 6.00 to 6.70
4. > 6.70

----------
- target entity: Casein kinase 1 delta (CSKN1D) (Homo sapiens)
- procedure text: Casein kinase assay, CK1 delta
- assay context: recombinant CSKN1D 5 nM, ATP 10 μM
assay readout: IC50

>>> observed("Nc1sccc1C(=O)Nc1nc2cc3c(cc2[nH]1)OC(F)(F)O3")
"200 to 1000 nM"
>>> observed("COc1cncc(C(=O)Nc2nc3cc4c(cc3[nH]2)OC(F)(F)O4)c1")
"< 200 nM"
>>> observed("O=C(Nc1nc2cc3c(cc2[nH]1)OC(F)(F)O3)c1csc(-c2ccccc2)n1")
"200 to 1000 nM"
>>> observed("O=C(Nc1nc2cc3c(cc2[nH]1)OC(F)(F)O3)c1nnn(-c2cccc(F)c2)c1C(F)(F)F")
"200 to 1000 nM"

As a next step, examine the compound that follows.
QUERY: Item Cc1cc(C(=O)Nc2nc3cc4c(cc3[nH]2)OC(F)(F)O4)nn1C has what recorded IC50?
RESULT: > 1000 nM
